B1: glmS ribozyme (parent)
chain: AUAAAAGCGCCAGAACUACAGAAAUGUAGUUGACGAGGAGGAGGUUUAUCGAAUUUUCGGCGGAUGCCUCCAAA

# Variants of: B1
# assaySummary: self-cleavage kobs at 40 uM GlcN6P; higher = faster cleavage; RNA array
# testContext: with glucosamine-6-phosphate
This sample holds only a part of the variants without activity.
recordedMetric: self-cleavage kobs at 40 uM GlcN6P

Request: Quote self-cleavage kobs at 40 uM GlcN6P reported for C50G G66A C70A please.
Response: 7.79e-05 s⁻¹

Request: Quote self-cleavage kobs at 40 uM GlcN6P reported for G32U C50G C71G please.
Response: 0.000189 s⁻¹

Request: Quote self-cleavage kobs at 40 uM GlcN6P reported for G51A G59U please.
Response: < 1e-05 s⁻¹

Request: Quote self-cleavage kobs at 40 uM GlcN6P reported for C8U U30A G62A U65A C71U please.
Response: < 1e-05 s⁻¹

Request: Quote self-cleavage kobs at 40 uM GlcN6P reported for A12C U47C please.
Response: 5.87e-05 s⁻¹

Request: Quote self-cleavage kobs at 40 uM GlcN6P reported for C10G G40C C70G please.
Response: < 1e-05 s⁻¹

Request: Quote self-cleavage kobs at 40 uM GlcN6P reported for C11A A14G G29A G35A A53G please.
Response: < 1e-05 s⁻¹

Request: Quote self-cleavage kobs at 40 uM GlcN6P reported for A12G G37C please.
Response: < 1e-05 s⁻¹

Request: Quote self-cleavage kobs at 40 uM GlcN6P reported for C10A A33U please.
Response: < 1e-05 s⁻¹

Request: Quote self-cleavage kobs at 40 uM GlcN6P reported for A12U G29U G35C U49A C70A C71G please.
Response: < 1e-05 s⁻¹

Request: Quote self-cleavage kobs at 40 uM GlcN6P reported for U46G C58U please.
Response: < 1e-05 s⁻¹
